Data provenance is patent US9289478B2.

Experiment: HPLC-assay for in-use stability after reconstitution with 4.2% sodium hydrogen carbonate solution (Example 3, peptides SEQ ID NO 11-23)
Format: physicochemical
Details: +Mannitol/Lutrol; 6h
measured_parameter: in-use stability, Peptide [%] (%)
Give bare numbers, in %.

Use the examples below as a reference point.
[
  {
    "chain": "GLWHHQTEV (listed as Homo sapiens) [NRCAM-001, Neuronal cell adhesion molecule peptide]",
    "measured_parameter": "in-use stability, Peptide [%]",
    "endpoint_value": 99.5
  },
  {
    "chain": "AMTQLLAGV (listed as Homo sapiens) [TNC-001, Tenascin C peptide]",
    "measured_parameter": "in-use stability, Peptide [%]",
    "endpoint_value": 100.2
  },
  {
    "chain": "TFSYVDPVITSISPKYG (listed as Homo sapiens) [MET-005, Met proto-oncogene peptide]",
    "measured_parameter": "in-use stability, Peptide [%]",
    "endpoint_value": 100.4
  },
  {
    "chain": "LTFGDVVAV (listed as Homo sapiens) [FABP7-001]",
    "measured_parameter": "in-use stability, Peptide [%]",
    "endpoint_value": 100.6
  }
]

Query block: Consider the sequence KVFAGIPTV (listed as Homo sapiens) [PTP-005, Protein tyrosine phosphatase, receptor-type, Z polypeptide 1 peptide] and give its measured in-use stability, Peptide [%].
Result block: 99.8

----------
So I've got a bunch of sequences here, and I need their stability of peptides in formulation, 2 M values.
Experiment: HPLC-assay for stability of peptides in lyophilised formulation on storage for 3 months (Example 4)
Type: physicochemical
Conditions: +25° C. +/- 2° C.; 2 months
Protocol: Identity, purity and peptide content are determined by analytical RP-HPLC chromatography. Detection wavelength was 220 nm.

For each listed entry, give its stability of peptides in formulation, 2 M.
1. LTFGDVVAV (listed as Homo sapiens) [FABP7-001]
2. AIIDGVESV (listed as Homo sapiens) [PTP-003, Protein tyrosine phosphatase, receptor-type, Z polypeptide 1 peptide]
3. GLWHHQTEV (listed as Homo sapiens) [NRCAM-001, Neuronal cell adhesion molecule peptide]

Result block:
1. 97.71 % of Initial
2. 97.11 % of Initial
3. 96.73 % of Initial

For each listed entry, give its stability of peptides in formulation, 2 M.
1. TFSYVDPVITSISPKYG (listed as Homo sapiens) [MET-005, Met proto-oncogene peptide]
2. ALWAWPSEL (listed as Homo sapiens) [BCA-002, Brevican tumour-associated peptide]
3. TLGEFLKLDRERAKN (listed as Homo sapiens) [BIR-002, Baculoviral IAP repeat-containing 5 (survivin) peptide]
4. KIQEILTQV (listed as Homo sapiens) [IGF2BP3-001]
5. AMTQLLAGV (listed as Homo sapiens) [TNC-001, Tenascin C peptide]
6. TMLARLASA (listed as Homo sapiens) [CSP-001, Chondroitin sulfate proteoglycan 4 peptide]
7. KVFAGIPTV (listed as Homo sapiens) [PTP-005, Protein tyrosine phosphatase, receptor-type, Z polypeptide 1 peptide]

Result block:
96.13 % of Initial
97.05 % of Initial
96.24 % of Initial
96.77 % of Initial
96.80 % of Initial
96.99 % of Initial
97.10 % of Initial

Query block: Consider the sequence NLDTLMTYV (listed as Homo sapiens) [NLGN4X-001, Neuroligin 4, X-linked peptide] and give its measured stability of peptides in formulation, 2 M.
Result block: 96.30 % of Initial
